Data provenance is paper PMC9395450.

# Protocol: Phase 1 drug-drug interaction study: single-dose pevonedistat plasma PK in the absence or presence of rifampin
# Format: in vivo, human
# Condition Parameters: human, plasma, intravenous, 50 mg/m^2, mixed-effects model, in the absence of rifampin, N=20; read-out: Cmax LS mean
Quantity Measured: Cmax (ng/mL)

>>> print(df.to_string())
                                     smiles  quantity_measured  numeric_value
0  NS(=O)(=O)OC[C@@H]1C[C@@H](n2ccc3c(N[C@H]4CCc5ccccc54)ncnc32)C[C@@H]1O               Cmax            602

====

# Protocol: Phase 1 drug-drug interaction study: single-dose pevonedistat plasma PK in the absence or presence of rifampin
# Assay type: in vivo, human
# Condition Parameters: human, plasma, intravenous, mixed-effects model, in the presence of rifampin, N=17; read-out: AUClast LS mean
Quantity Measured: AUC(0-t) (ng·h/mL)

>>> df
                                     smiles  numeric_value
0  NS(=O)(=O)OC[C@@H]1C[C@@H](n2ccc3c(N[C@H]4CCc5ccccc54)ncnc32)C[C@@H]1O           2340

====

# Protocol: Phase 1 drug-drug interaction study: single-dose pevonedistat plasma PK in the absence or presence of rifampin
# Assay type: in vivo, human
# Condition Parameters: human, plasma, iv, 50 mg/m2, single 50 mg/m^2 IV, in the presence of rifampin (Day 10), N=17; read-out: Vss geometric mean (CV)
Quantity Measured: Vd (L)

>>> print(df.to_string())
                                     smiles  quantity_measured  numeric_value
0  NS(=O)(=O)OC[C@@H]1C[C@@H](n2ccc3c(N[C@H]4CCc5ccccc54)ncnc32)C[C@@H]1O                 Vd            265

====

# Protocol: Phase 1 drug-drug interaction study: single-dose pevonedistat plasma PK in the absence or presence of rifampin
# Assay type: in vivo, human
# Condition Parameters: human, plasma, iv, 50 mg/m2, single 50 mg/m^2 IV, in the presence of rifampin (Day 10), N=17; read-out: t1/2z mean (SD) (converted)
Quantity Measured: half-life (h)

                                   molecule  quantity_measured  numeric_value
0  NS(=O)(=O)OC[C@@H]1C[C@@H](n2ccc3c(N[C@H]4CCc5ccccc54)ncnc32)C[C@@H]1O [pevonedistat, Pevonedistat]          half-life            5.7

====

# Protocol: Phase 1 drug-drug interaction study: single-dose pevonedistat plasma PK in the absence or presence of rifampin
# Assay type: in vivo, human
# Condition Parameters: human, plasma, iv, 50 mg/m2, single 50 mg/m^2 IV, in the presence of rifampin (Day 10), N=17; read-out: AUC∞ geometric mean (CV)
Quantity Measured: AUC(0-inf) (ng·h/mL)

>>> df
                                     smiles  numeric_value
0  NS(=O)(=O)OC[C@@H]1C[C@@H](n2ccc3c(N[C@H]4CCc5ccccc54)ncnc32)C[C@@H]1O           2370

====

# Protocol: Phase 1 drug-drug interaction study: single-dose pevonedistat plasma PK in the absence or presence of rifampin
# Type: in vivo, human
# Condition Parameters: human, plasma, iv, 50 mg/m2, plasma clearance, single 50 mg/m^2 IV, in the absence of rifampin (Day 1), N=20; read-out: CL geometric mean (CV) (converted)
Quantity Measured: clearance (mL/min)

>>> df
                                   molecule  numeric_value
0  NS(=O)(=O)OC[C@@H]1C[C@@H](n2ccc3c(N[C@H]4CCc5ccccc54)ncnc32)C[C@@H]1O [pevonedistat, Pevonedistat]            550

====

# Protocol: Phase 1 drug-drug interaction study: single-dose pevonedistat plasma PK in the absence or presence of rifampin
# Format: in vivo, human
# Condition Parameters: human, plasma, intravenous, 50 mg/m^2, mixed-effects model, in the absence of rifampin, N=20; read-out: AUC∞ LS mean
# Experimental: This was an open-label, multi-center study in adult patients with advanced solid tumors (NCT03486314). […] Serial blood samples for measuring pevonedistat concentrations were collected at intervals from 0 (predose) to 48 h after the single doses of pevonedistat on Day 1 and Day 10. Plasma samples were analyzed for pevonedistat concentrations using a previously reported validated liquid chromatography/mass spectrometry (LC–MS/MS) assay. […]
Quantity Measured: AUC(0-inf) (ng·h/mL)

                                   compound  quantity_measured  unit_annotation  numeric_value
0  NS(=O)(=O)OC[C@@H]1C[C@@H](n2ccc3c(N[C@H]4CCc5ccccc54)ncnc32)C[C@@H]1O [pevonedistat, Pevonedistat]         AUC(0-inf)          ng·h/mL           3030
